The measured values listed here are drawn from patent US20190233542A1.

- MEASUREMENT_TARGET: T1, human PCSK9 (Proprotein Convertase Subtilisin/Kexin type 9) (human, UniProt Q8NBP7 31-692, biotin label in the ELISA formats (site not stated))
- T1 construct: 85 kDa was used as the analyte's mass in SPR; also called PCSK9 (WT); wild type PCSK9
- TEST_DETAILS: SPR, Biacore T200, antibody captured, PCSK9 as analyte
RECORDED_METRIC: koff
Please append the unit to your numeric answer.

Req: Need koff, item 19.3.8-uAb1-IgG4L (antibody, V domains shown, human IgG4 constant region, lambda light chain) VH: QVQLVQSGAEVKKPGASVKVSCKASGYTFTGYYINWVRQAPGQGLEWMGRINPNSGGTNYAQKFQGRVTMTRDTSINTAYMELSRLRSDDTAVYFCASWEGTVTTWDFYYYYGMDVWGQGTTVTVSS VL: QSALTQPASVSGSPGQSITISCTGTSSDVDTYNYVSWYQHHPGKAPKLIIFDVSNRPSGVSNRFSGSKSGNTASLTISGLQAEDEADYYCSSYTSSSTLVVFGGGTKLTVL
Resp: 0.000271 s⁻¹
